Where do these numbers come from? They come from PubChem BioAssay AID372.

target: Gag-Pol polyprotein (Human immunodeficiency virus type 1 group M subtype B (isolate HXB2)); assay: RNase H inhibition, HIV 1 Gag Pol polyprotein, FRET biochemical assay, screening (AID 372); details: HIV-1 RT RNase H, FRET RNA/DNA substrate fluorescence; at 10 µM; stronger effect = higher value
In all, about 100,000 compounds went through this assay and about 770 (0.77%) were called active. Many of the other results were omitted from the sample, so actives are more common in it than they were.
We'd kindly ask you to apply these inhibition classes: lowest (below 20%), middle (20% to below 50%), highest (50% or more)

# Compound, Assigned Label
data = [
    ("Cc1cc(-c2ccc(/C=C3/C(=O)NC(=O)N(Cc4ccco4)C3=O)o2)ccc1Br", "highest"),
    ("CCOC(=O)c1ccc(N2C(=O)C3C(C2=O)C2(c4ccccc4)C(=O)C3(c3ccccc3)C(c3ccc(OC)cc3)=C2c2ccc(OC)cc2)cc1 (configuration not stated)", "middle"),
    ("Cc1c(CCNC(=O)c2ccccc2)c2ccccc2n1Cc1ccccc1", "highest"),
    ("Cc1cc(/C=C2/C(=O)NC(=O)N(Cc3ccco3)C2=O)c(C)n1-c1ccc([N+](=O)[O-])cc1", "lowest"),
    ("Clc1cccc(-c2ccc(/C=N/Nc3nc4ccccc4s3)o2)c1", "lowest"),
]

Kindly identify the class of O=C1NC(=O)N(Cc2ccco2)C(=O)/C1=C\c1ccc(-c2ccc(Cl)cc2Cl)o1 .
highest

Determine which band this compound sits in: Cc1c(CCNC(=O)c2ccccc2F)c2ccccc2n1Cc1ccccc1
middle

Consider O=C1NC(=O)N(Cc2ccco2)C(=O)/C1=C\c1ccc(-c2ccc(C(=O)O)cc2)o1 . To which inhibition class does it belong?
middle

Hey, which category is O=C1NC(=O)N(Cc2ccco2)C(=O)/C1=C\c1ccc(-c2cccc(Cl)c2Cl)o1 in, do you know?
middle

Pick a category. Item: Cc1ccc(S(=O)(=O)N/N=C/c2ccc(C(=O)O)cc2)cc1
lowest

GET /class?item= COc1ccc(Cc2noc(-c3ccccc3Cl)n2)cc1OC
middle

State the class of the compound shown: O=C1NC(=O)N(Cc2ccco2)C(=O)/C1=C\c1ccc(-c2ccc([N+](=O)[O-])cc2)o1
lowest
